# assay_target: BRAF G466V (Homo sapiens, UniProt P15056, G466V)
# Construct: expressed in transfected cells
# Sequence (P15056 whole entry G466V): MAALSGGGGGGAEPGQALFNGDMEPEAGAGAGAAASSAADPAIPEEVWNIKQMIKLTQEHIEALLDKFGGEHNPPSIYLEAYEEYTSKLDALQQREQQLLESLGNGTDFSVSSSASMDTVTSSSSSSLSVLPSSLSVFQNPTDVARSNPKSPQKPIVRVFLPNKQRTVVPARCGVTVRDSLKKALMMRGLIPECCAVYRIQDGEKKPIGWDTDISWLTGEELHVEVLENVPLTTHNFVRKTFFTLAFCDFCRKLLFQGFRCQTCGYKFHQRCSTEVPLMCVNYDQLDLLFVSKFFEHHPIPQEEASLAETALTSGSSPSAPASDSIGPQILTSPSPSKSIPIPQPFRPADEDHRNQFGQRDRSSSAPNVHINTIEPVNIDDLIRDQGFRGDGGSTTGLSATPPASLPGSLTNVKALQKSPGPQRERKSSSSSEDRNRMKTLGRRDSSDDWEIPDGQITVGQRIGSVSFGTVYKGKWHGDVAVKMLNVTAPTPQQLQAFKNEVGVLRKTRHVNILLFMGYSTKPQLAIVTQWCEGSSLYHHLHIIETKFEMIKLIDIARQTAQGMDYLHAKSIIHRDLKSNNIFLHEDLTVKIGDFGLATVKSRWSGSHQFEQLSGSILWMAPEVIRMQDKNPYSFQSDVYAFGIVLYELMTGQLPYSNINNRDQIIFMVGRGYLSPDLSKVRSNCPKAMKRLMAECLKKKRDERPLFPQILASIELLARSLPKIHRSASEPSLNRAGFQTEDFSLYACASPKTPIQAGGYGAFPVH
# procedure_text: Cellular assay of target protein degradation, T-Rex 293 cells stably transfected with HA-BRAF G466V (HA immunofluorescence, high content imaging)
# Format: cell-based
# reported_conditions: maximum degradation observed, T-Rex 293 HA-BRAF G466V
Form field: Dmax (one value per entry).

Below, 3 molecules whose answers are already recorded.
CC(C)CS(=O)(=O)Nc1ccc(F)c(C(=O)c2c[nH]c3ncc(-c4ccc(N5CCC(CN6CCC(c7ccc8c(c7)CN([C@H]7CCC(=O)NC7=O)C8=O)CC6)CC5)cc4)cc23)c1F: 35 to 70%
O=C1CC[C@@H](N2Cc3cc(C[C@@H](O)CN4CCN(c5ccc(-c6cnc7[nH]cc(C(=O)c8c(F)ccc(NS(=O)(=O)N9CC[C@@H](F)C9)c8F)c7c6)cc5)CC4)ccc3C2=O)C(=O)N1: > 70%
O=C1CCC(c2ccc(C3CCN(CC4CCN(c5ccc(-c6cnc7[nH]cc(C(=O)c8c(F)ccc(NS(=O)(=O)N9CC[C@@H](F)C9)c8F)c7c6)cc5)CC4)CC3)cn2)C(=O)N1 (stereo partly shown): > 70%

input: Could you share what Dmax was measured for Nc1ccc(F)c(C(=O)c2c[nH]c3ncc(-c4ccc(N5CCC(CN6CCC(c7ccc8c(c7)CN([C@H]7CCC(=O)NC7=O)C8=O)CC6)CC5)cc4)cc23)c1F , tested on BRAF G466V (Homo sapiens, UniProt P15056, G466V)?
output: < 35%

input: Could you share what Dmax was measured for O=C1CCC(N2Cc3cc(N4CC5(CN(CC6CCN(c7ccc(-c8cnc9[nH]cc(C(=O)c%10c(F)ccc(NS(=O)(=O)N%11CCC(F)(F)C%11)c%10F)c9c8)cc7)CC6)C5)C4)ccc3C2=O)C(=O)N1 (stereo not shown) , tested on BRAF G466V (Homo sapiens, UniProt P15056, G466V)?
output: > 70%

input: Could you share what Dmax was measured for COc1cc(N2CC3(CN(CC4CCN(c5ccc(-c6cnc7[nH]cc(C(=O)c8c(F)ccc(NS(=O)(=O)N9CC[C@@H](F)C9)c8F)c7c6)cc5)CC4)C3)C2)cc(F)c1C(=O)N[C@H]1CCC(=O)NC1=O , tested on BRAF G466V (Homo sapiens, UniProt P15056, G466V)?
output: > 70%

input: Could you share what Dmax was measured for N#Cc1cc(-c2cnc3[nH]cc(C(=O)c4c(F)ccc(NS(=O)(=O)N5CC[C@@H](F)C5)c4F)c3c2)cc(C#N)c1N1CCC(CN2CCC(c3ccc4c(c3)CN(C3CCC(=O)NC3=O)C4=O)CC2)CC1 (stereo partly shown) , tested on BRAF G466V (Homo sapiens, UniProt P15056, G466V)?
output: > 70%

Values were extracted from patent US12180193B2.
